Non-standard residues stand in square brackets, D forms with d. Residues, ends and D or L forms follow the SMILES beside them. *: point of attachment. Palmitoyl = CCCCCCCCCCCCCCCC(=O)*; Dap = NC[C@H](N)C(=O)O
So I've got a bunch of compounds here, and I need their MIC, C. neoformans ATCC 208821 values.

Q. Under C. neoformans: report MIC, C. neoformans ATCC 208821 of CCCCCCCCCCCCCCCC(=O)NCC(=O)N[C@@H](CCCNC(=N)N)C(=O)N[C@@H](CCCNC(=N)N)C(=O)NCC(=O)NCC(=O)N[C@@H](CCCNC(=N)N)C(=O)O [Pal-GR6, Pal-GRRGGR] (HELM PEPTIDE1{[CCCCCCCCCCCCCCCC(=O)[*:2]].G.R.R.G.G.R}$$$$V2.0) .
A. ≥16 µg/mL

Q. Under C. neoformans: report MIC, C. neoformans ATCC 208821 of CCCCCCCCCCCCCCCC(=O)N[C@@H](CCCNC(=N)N)C(=O)NCC(=O)N[C@@H](CO)C(=O)N[C@@H](CCCNC(=N)N)C(=O)N[C@@H](CO)C(=O)NCC(=O)N[C@@H](CCC(N)=O)C(=O)N[C@@H](CO)C(=O)N[C@@H](CO)C(=O)N[C@@H](CCCNC(=N)N)C(=O)NCC(=O)N[C@@H](CCC(=O)O)C(=O)N[C@@H](CCCNC(=N)N)C(=O)N[C@@H](CCCNC(=N)N)C(=O)O [Pal-HR 1-11 2H2R-14] (HELM PEPTIDE1{[CCCCCCCCCCCCCCCC(=O)[*:2]].R.G.S.R.S.G.Q.S.S.R.G.E.R.R}$$$$V2.0) .
A. ≥8 µg/mL

Q. Under C. neoformans: report MIC, C. neoformans ATCC 208821 of CCCCCCCCCCCCCCCC(=O)NCC(=O)N[C@@H](CCCNC(=N)N)C(=O)N[C@@H](CCCNC(=N)N)C(=O)NCC(=O)NCC(=O)N[C@@H](CCCNC(=N)N)C(=O)NCC(=O)NCC(=O)N[C@@H](CCCNC(=N)N)C(=O)NCC(=O)N[C@@H](CCCNC(=N)N)C(=O)O [Pal-GR11] (HELM PEPTIDE1{[CCCCCCCCCCCCCCCC(=O)[*:2]].G.R.R.G.G.R.G.G.R.G.R}$$$$V2.0) .
A. ≥4 µg/mL

Q. Under C. neoformans: report MIC, C. neoformans ATCC 208821 of CCCCCCCCCCCCCCCC(=O)NCC(=O)N[C@@H](CCCNC(=N)N)C(=O)N[C@@H](CCCNC(=N)N)C(=O)NCC(=O)NCC(=O)N[C@@H](CCCNC(=N)N)C(=O)NCC(=O)NCC(=O)N[C@@H](CCCNC(=N)N)C(=O)NCC(=O)N[C@@H](CCCNC(=N)N)C(=O)NCC(=O)N[C@@H](CCCNC(=N)N)C(=O)O [Pal-GR13] (HELM PEPTIDE1{[CCCCCCCCCCCCCCCC(=O)[*:2]].G.R.R.G.G.R.G.G.R.G.R.G.R}$$$$V2.0) .
A. ≥0.25 µg/mL

Q. Under C. neoformans: report MIC, C. neoformans ATCC 208821 of CCCCCCCCCCCCCCCC(=O)NCC(=O)N[C@@H](CCCNC(=N)N)C(=O)N[C@@H](CCCNC(=N)N)C(=O)NCC(=O)N[C@@H](CO)C(=O)NCC(=O)N[C@@H](CC(C)C)C(=O)NCC(=O)N[C@@H](CCCNC(=N)N)C(=O)N[C@@H](CO)C(=O)N[C@@H](CO)C(=O)N[C@@H](CO)C(=O)N[C@@H](CCCNC(=N)N)C(=O)O [Pal-HR 1-18 3H3R-GR13] (HELM PEPTIDE1{[CCCCCCCCCCCCCCCC(=O)[*:2]].G.R.R.G.S.G.L.G.R.S.S.S.R}$$$$V2.0) .
A. ≥16 µg/mL

Q. Under C. neoformans: report MIC, C. neoformans ATCC 208821 of CCCCCCCCCCCCCCCC(=O)NCC(=O)N[C@@H](CN)C(=O)NCC(=O)N[C@@H](CN)C(=O)O [Pal-GDap4, Pal-GDapGDap] (Palmitoyl-G[Dap]G[Dap]-OH) .
A. ≥1 µg/mL
